Data origin, for the record: patent US11214803B2

- Test system: Yap1 mRNA
- ASSAY NAME: Dose-dependent inhibition of human Yap1 in SNU-449 cells (Example 9, RTS36584)
- Type: cell-based
- MEASUREMENT PARAMETERS: 125.0 nM, free uptake, approximately 48 hours
Strand notation (5' to 3'): a small letter for the sugar, then the base; units joined by * are phosphorothioate-linked, units joined directly phosphodiester-linked; [ ] holds rarer units or linkages, { } end groups; capitals alone tell only the bases. e = 2'-O-(2-methoxyethyl) (MOE); k = constrained ethyl (cEt); [5mC] = 5-methylcytosine; d = 2'-deoxy (DNA)
Provide the reported % UTC (Yap1 mRNA) of each item.
Could you kindly put the unit after your number?

The substance 1198877 (kT*kT*dA*dA*dA*dG*dT*dG*dT*dA*dT*kG*eT*k[5mC]*eA*kG; antisense) [compound 1198877] showed % UTC (Yap1 mRNA) equal to 32 % UTC

The substance 1198724 (kA*eG*kA*dG*dT*dA*dT*dG*dT*dG*dG*d[5mC]*eA*eA*kT*kA; antisense) [compound 1198724] showed % UTC (Yap1 mRNA) equal to 25 % UTC

The substance 1198553 (kT*kA*kG*dA*dG*dT*dA*dT*dG*dT*dG*dG*k[5mC]*kA*kA*eT; antisense) [compound 1198553] showed % UTC (Yap1 mRNA) equal to 38 % UTC

The substance 1198406 (kG*d[5mC]*dT*dT*dT*dG*dG*dA*dA*dG*dA*kT*e[5mC]*kT*eG*kA; antisense) [compound 1198406] showed % UTC (Yap1 mRNA) equal to 57 % UTC

The substance 1198552 (kA*kG*kA*dG*dT*dA*dT*dG*dT*dG*dG*d[5mC]*kA*kA*kT*eA; antisense) [compound 1198552] showed % UTC (Yap1 mRNA) equal to 46 % UTC

The substance 1198746 (kG*e[5mC]*kA*d[5mC]*dT*dT*dT*dT*dA*d[5mC]*dA*dT*eT*eA*kG*kG) [compound 1198746] showed % UTC (Yap1 mRNA) equal to 24 % UTC

The substance 1097247 (kT*kA*kA*dA*dG*dT*dG*dT*dA*dT*dG*dT*d[5mC]*kA*kG*kA; antisense) [compound 1097247] showed % UTC (Yap1 mRNA) equal to 28 % UTC

----------
- Tested on: Yap1 mRNA
- ASSAY NAME: Antisense inhibition of human Yap1 in SNU-449 cells by modified oligonucleotides, single dose (Example 5, RTS36584)
- Format: cell-based
- MEASUREMENT PARAMETERS: Table 43 experiment; SNU-449 cells, 10,000 cells per well, free uptake, 2,000 nM, approximately 48 hours; RTS36584; Yap1 mRNA normalized to RIBOGREEN, relative to untreated control cells
Strand notation (5' to 3'): a small letter for the sugar, then the base; units joined by * are phosphorothioate-linked, units joined directly phosphodiester-linked; [ ] holds rarer units or linkages, { } end groups; capitals alone tell only the bases. e = 2'-O-(2-methoxyethyl) (MOE); k = constrained ethyl (cEt); [5mC] = 5-methylcytosine; d = 2'-deoxy (DNA)
Provide the reported YAP1 (% UTC) of each item.
Number in % UTC, nothing else.

// YAP1 (% UTC) (Yap1 mRNA) for 715487 (antisense kA*kT*kT*dA*d[5mC]*dT*dT*d[5mC]*dA*dT*dA*dG*d[5mC]*kT*kT*kA) [Compound 715487] = 25

// YAP1 (% UTC) (Yap1 mRNA) for 1198250 (k[5mC]*kT*dT*dA*dT*dA*dT*dG*dG*dT*dT*eT*eT*eG*kT*kG; antisense) [Compound 1198250] = 50

// YAP1 (% UTC) (Yap1 mRNA) for 1198260 (kT*kA*dA*dT*dA*dT*dT*dG*d[5mC]*dA*dA*eT*e[5mC]*eT*kG*kT; antisense) [Compound 1198260] = 106

// YAP1 (% UTC) (Yap1 mRNA) for 1198261 (kG*kT*dA*dA*dT*dA*dT*dT*dG*d[5mC]*dA*eA*eT*e[5mC]*kT*kG; antisense) [Compound 1198261] = 54

// YAP1 (% UTC) (Yap1 mRNA) for 1198256 (kG*kA*d[5mC]*dA*dA*d[5mC]*dT*d[5mC]*dT*dT*dA*eT*eA*eT*kG*kG; antisense) [Compound 1198256] = 78

// YAP1 (% UTC) (Yap1 mRNA) for 1198473 (antisense kT*k[5mC]*dT*dA*dT*dA*dT*dT*dA*dG*dA*eG*kT*eA*kT*eG) [Compound 1198473] = 66
